# maps each entry to its inhibition at 1 µM
biological target: Abl kinase (Homo sapiens); construct: purchased Millipore (KinaseProfiler Service); experiment: KinaseProfiler kinase inhibition assay, Abl; type: biochemical; settings: 1 μM compound
Sequence (P00519 whole entry): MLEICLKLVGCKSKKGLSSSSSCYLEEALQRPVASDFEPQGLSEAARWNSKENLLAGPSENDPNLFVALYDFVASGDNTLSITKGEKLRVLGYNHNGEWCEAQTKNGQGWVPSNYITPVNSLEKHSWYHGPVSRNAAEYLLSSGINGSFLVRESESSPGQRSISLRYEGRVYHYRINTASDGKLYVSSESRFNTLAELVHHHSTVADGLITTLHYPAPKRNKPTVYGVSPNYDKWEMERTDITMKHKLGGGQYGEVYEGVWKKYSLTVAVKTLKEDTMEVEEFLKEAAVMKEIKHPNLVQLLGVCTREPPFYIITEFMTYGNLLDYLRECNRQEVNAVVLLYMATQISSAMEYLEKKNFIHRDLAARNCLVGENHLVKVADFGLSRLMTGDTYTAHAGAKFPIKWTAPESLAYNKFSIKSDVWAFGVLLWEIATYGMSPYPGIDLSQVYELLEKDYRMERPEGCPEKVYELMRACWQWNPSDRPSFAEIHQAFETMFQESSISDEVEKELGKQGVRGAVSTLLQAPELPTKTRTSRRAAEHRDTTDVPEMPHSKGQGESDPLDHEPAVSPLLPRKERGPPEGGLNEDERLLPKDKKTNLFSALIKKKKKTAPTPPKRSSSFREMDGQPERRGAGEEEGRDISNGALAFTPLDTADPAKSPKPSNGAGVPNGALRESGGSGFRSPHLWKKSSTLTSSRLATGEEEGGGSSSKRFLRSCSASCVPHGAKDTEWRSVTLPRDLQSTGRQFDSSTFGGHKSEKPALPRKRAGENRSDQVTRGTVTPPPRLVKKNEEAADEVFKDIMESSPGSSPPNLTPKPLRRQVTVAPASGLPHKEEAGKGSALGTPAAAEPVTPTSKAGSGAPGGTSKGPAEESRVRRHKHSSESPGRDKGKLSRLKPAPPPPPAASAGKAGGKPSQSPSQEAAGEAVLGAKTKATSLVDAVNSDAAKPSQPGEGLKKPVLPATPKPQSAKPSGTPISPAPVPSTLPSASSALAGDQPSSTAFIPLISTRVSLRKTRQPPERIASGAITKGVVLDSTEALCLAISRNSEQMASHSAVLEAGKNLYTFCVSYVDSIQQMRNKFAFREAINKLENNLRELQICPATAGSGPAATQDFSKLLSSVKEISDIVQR
Please respond with the number in % and leave the unit unwritten.

Would you please look over these solved cases?
Kindly note the recorded inhibition at 1 µM for Cc1cc2c(F)c(Oc3cc(Nc4cc(-c5ccco5)[nH]n4)ncn3)ccc2[nH]1 , which is 36

Input Cc1cc2c(F)c(Oc3cc(Nc4ccccn4)ncn3)ccc2[nH]1 . Output inhibition at 1 µM: 45

Data point: C/C=C/c1cc(Nc2cc(Oc3ccc4[nH]c(C)cc4c3F)ncn2)n[nH]1 ; inhibition at 1 µM = 42

Continuing:
Just so you know, measured inhibition at 1 µM for CCN1CCN(c2ccc(Nc3cc(Oc4ccc5[nH]c(C)cc5c4F)ncn3)cc2)CC1 came out at 47

Each recorded value in this set is attributed to patent US10766879B2.
